tested on: NCI-H226 lung; assay: NCI tumour cell line growth inhibition, 48 h; in the data active = GI50 below about 0.43 µM; inactive = the rest
Choose the fitting class; nothing outside label 1 (active), label 0 (inactive) is accepted.

Task: Lab log entry: O=C1c2cccc3c(N4CCOCC4)ccc(c23)C(=O)N1CCN1CCN(CCCCCN2CCN(CCN3C(=O)c4cccc5c(N6CCOCC6)ccc(c45)C3=O)CC2)CC1 — outcome as called in the assay?
Result: label 0

Task: Entry S=C(Sc1ccc(Cl)cc1)Sc1ccc(Cl)cc1 : call = ?
Result: label 0

Task: What did this assay record as the result for Cc1ccc(C(=O)Nc2ccc(Oc3cc4cnn(C)c4cc3-c3cn[nH]c3)c(F)c2)c(=O)n1-c1ccc(F)cc1 ?
Result: label 0

Task: Fill in: this test's call for O=c1[nH]c2ccccc2cc1-c1nnc(Cc2ccccc2)o1 is ___
Result: label 0

Task: Dear colleague, could you share the recorded outcome for Cc1ccccc1Nc1cc(O)c2c(=O)cc(-c3ccccc3)oc2c1 when you have a moment?
Result: label 0

Task: Check the results log: what was the call for CCCCCCCCCCCCCC(=O)O[C@H]1CC[C@H](NC(=O)[C@H](OC)[C@H](O)[C@@H](O)[C@H](O)/C=C/C(C)C)C(=O)N(C)C1 ?
Result: label 0

Task: Tell me the assay call for C/C(=N\NC(=S)N1CCC1)c1ccccn1 please.
Result: label 1

Task: Hello, I am checking results. What call was entered for CN(Cc1cnc2nc(N)nc(N)c2n1)c1ccc(C(=O)NC(CCC(=O)O)C(=O)O)c2ccccc12 (centres undefined) ?
Result: label 0

Task: I would be grateful if you could indicate the recorded call for CCN1C(=O)N(CC)C2C1NC(=S)N2/N=C/C=C/c1ccccc1 (centres undefined) .
Result: label 1

----------
tested on: NCI-H23 lung; assay: NCI tumour cell line growth inhibition, 48 h; in the data active = GI50 below about 0.43 µM; inactive = the rest
// allowed return values: active, inactive

Task: What call does the record list for C#COc1cccc(Nc2ncnc3cc(NC(=O)[C@@H](C)Cl)ccc23)c1 ?
Result: inactive

Task: State the result this test recorded for CCc1ccc(Oc2c(-c3ccc(OCc4ccc(Cl)cc4)cc3O)nn(C)c2C(F)(F)F)cc1 .
Result: active

Task: In this assay, the call recorded for Cc1ccc2ccc3c4ccccc4ccc3c2c1 was what?
Result: inactive

Task: I'd appreciate the recorded outcome for CCN(CC)CCCC(Nc1c2ccc(Cl)cc2nc2ccc(OC)cc12)c1ccc(Cl)cc1 (centres undefined) from this test.
Result: inactive

Task: Recorded call for S=C(Sc1ccc(Cl)cc1)Sc1ccc(Cl)cc1 ?
Result: inactive

Task: Returns: the outcome recorded for CCCCCCCCCCCCCC(=O)O[C@H]1CC[C@H](NC(=O)[C@H](OC)[C@H](O)[C@@H](O)[C@H](O)/C=C/C(C)C)C(=O)N(C)C1 in this assay.
Result: active

Task: I'd appreciate the recorded outcome for O=C1c2cccc3c(N4CCOCC4)ccc(c23)C(=O)N1CCN1CCN(CCCCCN2CCN(CCN3C(=O)c4cccc5c(N6CCOCC6)ccc(c45)C3=O)CC2)CC1 from this test.
Result: inactive

Task: Per the records of this test, what outcome belongs to Cc1ccc(C(=O)Nc2ccc(Oc3cc4cnn(C)c4cc3-c3cn[nH]c3)c(F)c2)c(=O)n1-c1ccc(F)cc1 ?
Result: inactive

Task: Answer briefly: the call reported for O=C(Nc1nc2ccc(S(=O)(=O)Nc3ccc(C4(C(F)(F)F)CC4)cc3)cc2[nH]1)c1cnccn1 in this assay.
Result: inactive

----------
system: LOX IMVI melanoma; experiment: NCI tumour cell line growth inhibition, 48 h
Measurement Label: TGI (µM)
Give the value in µM but do not write µM after it.

Briefly, TGI measured for COC(=O)[C@H](C)NC(=O)[C@H](NS(=O)(=O)c1nc2ccccc2s1)c1ccccc1 : 31.9

compound O=c1[nH]c(=S)[nH]c(O)c1/C=C1\C=Nc2ccccc21 , TGI observed: 11.1

Short answer for S=C(Sc1ccc(Cl)cc1)Sc1ccc(Cl)cc1 : TGI was 2.37

Quick note, TGI for COc1ccc(-c2cnc(-c3ccncc3-c3cccc(OC)c3)o2)cc1 landed at 15.5

----------
test system: SF-295 CNS; assay: NCI tumour cell line growth inhibition, 48 h
Measurement Label: TGI (µM)
Answer in µM, number only, no unit symbol.

TGI of C[C@]12CCc3nc(Nc4ccc(O)cc4)sc3C1=CC[C@@H]1[C@@H]2CC[C@]2(C)/C(=N/NC(N)=S)CC[C@@H]12 , assay on SF-295 CNS, is 3.48

TGI of O=C(Nc1ccccc1C(=O)NC(=O)c1ccccc1NC(=O)c1ccccc1)c1ccccc1 , assay on SF-295 CNS, is 26.6

----------
test system: MOLT-4 leukemia; experiment: NCI tumour cell line growth inhibition, 48 h
Please go through the items and note down their TGI.

Log: MOLT-4 leukemia, molecule CCc1c(OC(C)=O)c2c(NC3OC(COC(C)=O)C(OC(C)=O)C(OC(C)=O)C3OC(C)=O)nc(SC)nc2oc1=O (configuration not stated) , TGI = > 100 µM

Bench note, MOLT-4 leukemia: O=C(O)c1ccccc1NCn1nc(-c2ccccc2O)oc1=S , TGI reads 30 µM

Measured on MOLT-4 leukemia, O=C(Nc1cccc2ccccc12)c1cc2ccccc2oc1=O has a documented TGI of > 100 µM

Form field, TGI with MOLT-4 leukemia, item CCOC(=O)C1C(c2ccc(Br)cc2)N(Cc2ccccc2)C(c2ccc(Br)cc2)C(C(=O)OC)S1(=O)=O (configuration not stated) : > 100 µM

Item Cc1cc2nc(N3C(=O)/C(=C/Cc4ccco4)N=C3c3ccccc3)sc2cc1C was tested on MOLT-4 leukemia; the reported TGI is > 100 µM

Entry C=CCOC(C)(C)C1=CCC(C)CC1 (configuration not stated) under MOLT-4 leukemia had TGI of > 100 µM

Param item: Cc1ccc(-n2nc(C(OC3OC(CO)C(O)C(O)C3O)C(O)CO)c3nc4cc(C)c(C)cc4nc32)cc1 (configuration not stated) ; param system: MOLT-4 leukemia; output TGI: > 100 µM

Lab entry: MOLT-4 leukemia assay, molecule COc1cc2c(cc1O)NC(=O)[C@@H]1C[C@@H](O)CN1C2=O , TGI = > 100 µM

Measured TGI for this entry C/C(=N\NC(=S)NC(C)(C)C)c1nc2ncccc2[nH]1 on MOLT-4 leukemia: 23.7 µM

Tested on MOLT-4 leukemia: COc1ccc(N(CC(=O)O)N=O)cc1 . Observed TGI: > 100 µM

Observed TGI, MOLT-4 leukemia, COc1ccc(O[C@H](CO)C[C@@H]2COC(C)(C)O2)cc1 : > 100 µM

MOLT-4 leukemia TGI of Nc1c(C(=O)Nc2ccccc2)sc2nc3c(cc12)C(=O)CCC3 is > 100 µM

Param item: O=C(Nc1ccc(-n2cc(-c3ccncc3)c(-c3ccc(Cl)c(O)c3)n2)cc1)c1cc(C(F)(F)F)cc(C(F)(F)F)c1 ; param system: MOLT-4 leukemia; output TGI: > 100 µM

Sample C/C(=N\NC(=S)N1CCC1)c1ccccn1 , system: MOLT-4 leukemia. Its TGI is > 10.5 µM

MOLT-4 leukemia assay, molecule CN1CCCc2nc3ccccc3n2C1 , recorded TGI = > 100 µM

Tested on MOLT-4 leukemia: O=C(O)c1ccccc1C(=O)c1ccco1 . Observed TGI: > 100 µM

Known value: MOLT-4 leukemia TGI of the molecule COC(=O)c1ccc(NC(N)=NCCC(C)(C)c2ccc(C(F)(F)F)cc2)nc1 equals 7.33 µM

----------
system: OVCAR-4 ovarian; test: NCI tumour cell line growth inhibition, 48 h
Kindly supply the reported TGI values for the records listed here.

Observed TGI on OVCAR-4 ovarian, entry O=C1c2ccccc2-c2c1c1ccccc1c(=O)n2CCCNCCNCCCn1c2c(c3ccccc3c1=O)C(=O)c1ccccc1-2 , equals 4.56 µM

Given the molecule O=C(O)C1CCC(=O)N1C(=O)COc1cc(Cl)c(Cl)cc1Cl (stereo not given) and test system OVCAR-4 ovarian, the measured TGI is > 100 µM

Per the reported OVCAR-4 ovarian data, COc1cccc(-c2cc(=O)c3cc(N4CCN(C)CC4)ccc3[nH]2)c1 has TGI of > 100 µM

Short answer on OVCAR-4 ovarian for COC1=C(OC)C(=O)C(Cc2c(Cl)nc3sccn23)=C(C)C1=O , TGI: 18.8 µM

Assay OVCAR-4 ovarian, sample O=C(O)CCCc1ccc2c(c1)C(C(=O)O)CC2 (stereo not given) , TGI read: > 100 µM

Response field TGI (OVCAR-4 ovarian) for item CC1=NC(=N)N=C(C)C1N=Nc1ccc2nc(C)[nH]c2c1 (stereo not given) : > 100 µM

Entry CCOC(=O)N1CCNCCN(C(=O)OCC)CCNCC1 ; assay system OVCAR-4 ovarian; TGI recorded at > 100 µM

Tested on OVCAR-4 ovarian, the item NC1CCC2(O)c3ccccc3C2C1 (stereo not given) showed TGI equal to > 100 µM

Record O=c1[nH]c2ccccc2cc1-c1nnc(Cc2ccccc2)o1 ; system OVCAR-4 ovarian; TGI = 18.3 µM

Entry CC(=O)O[C@H]1CC[C@@H](OC(C)=O)[C@H]2[C@H](O)[C@H](O)[C@@H]1n1c(=O)n(-c3ccccc3)c(=O)n12 , OVCAR-4 ovarian data, TGI value: > 100 µM

Measured TGI for this entry C/C(=N\NC(=S)NC(C)(C)C)c1nc2ncccc2[nH]1 on OVCAR-4 ovarian: > 100 µM

Note to self: TGI of Cc1ccc(C(=O)Nc2ccc(CP(=O)(O)O)cc2CP(=O)(O)O)cc1N with OVCAR-4 ovarian was > 100 µM

With OVCAR-4 ovarian as the test system, NC(=O)c1nc(-c2c(F)cccc2Cl)oc1Nc1ccc(C(=O)N2CCOCC2)cc1 showed TGI of > 100 µM

Record COc1cc(C2c3cc4c(cc3[C@@H](Nc3ccc(F)cc3)C3COC[C@H]23)OCO4)cc(OC)c1O (stereo not given in full) ; system OVCAR-4 ovarian; TGI = > 25 µM

Record N#CN1CC[C@H](C(=O)Nc2ncc(-c3ccccc3)s2)C1 has OVCAR-4 ovarian TGI equal to 5.59 µM

Reported TGI (OVCAR-4 ovarian) for entry Cc1cc(-c2ccc(N=Nc3ccc4c(S(=O)(=O)O)cc(S(=O)(=O)O)c(N)c4c3O)c(C)c2)ccc1N=Nc1ccc2c(S(=O)(=O)O)cc(S(=O)(=O)O)c(N)c2c1O is > 100 µM

Entry Cc1ccccc1Nc1cc(O)c2c(=O)cc(-c3ccccc3)oc2c1 : TGI on OVCAR-4 ovarian = > 100 µM

The observed TGI for O=c1[nH]nc(Nc2ccc(Cl)cc2)c2nnn(C3CCCCC3)c12 when tested with OVCAR-4 ovarian stands at 43.1 µM

Given the molecule O=C1c2cccc3c(N4CCOCC4)ccc(c23)C(=O)N1CCN1CCN(CCCCCN2CCN(CCN3C(=O)c4cccc5c(N6CCOCC6)ccc(c45)C3=O)CC2)CC1 and test system OVCAR-4 ovarian, the measured TGI is > 100 µM

I looked up CC(C)OC(=O)C(NC(=O)C(CC(=O)OCc1ccccc1)NC(=O)OCc1ccccc1)NC(=O)C1C(C)(C)CCC1(C)C (stereo not given) and its TGI for OVCAR-4 ovarian was 14.2 µM
